Molecular target: Lyn (Homo sapiens, UniProt P07948)
Sequence (P07948 whole entry, species assumed): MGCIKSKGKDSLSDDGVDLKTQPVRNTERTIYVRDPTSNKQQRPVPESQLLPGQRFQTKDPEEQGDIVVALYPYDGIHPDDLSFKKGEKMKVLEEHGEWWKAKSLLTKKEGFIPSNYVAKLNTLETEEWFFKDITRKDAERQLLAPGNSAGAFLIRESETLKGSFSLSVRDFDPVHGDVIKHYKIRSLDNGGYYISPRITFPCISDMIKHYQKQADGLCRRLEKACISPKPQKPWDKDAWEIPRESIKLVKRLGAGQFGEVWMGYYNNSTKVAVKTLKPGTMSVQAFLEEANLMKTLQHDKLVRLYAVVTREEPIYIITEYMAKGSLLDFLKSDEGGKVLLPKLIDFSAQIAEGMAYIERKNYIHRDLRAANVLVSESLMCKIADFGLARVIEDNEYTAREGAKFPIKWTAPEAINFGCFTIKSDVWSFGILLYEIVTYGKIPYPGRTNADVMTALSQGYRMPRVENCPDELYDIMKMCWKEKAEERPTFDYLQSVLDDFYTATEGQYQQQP
measure name: IC50

Find the recorded IC50 belonging to NC(=S)n1nc(-c2ccc([N+](=O)[O-])cc2)c(/N=N/c2cccc(Cl)c2)c1O and report it. > 20 µM
